Molecular target: UniProtKB P33261
Sequence (P33261 whole entry): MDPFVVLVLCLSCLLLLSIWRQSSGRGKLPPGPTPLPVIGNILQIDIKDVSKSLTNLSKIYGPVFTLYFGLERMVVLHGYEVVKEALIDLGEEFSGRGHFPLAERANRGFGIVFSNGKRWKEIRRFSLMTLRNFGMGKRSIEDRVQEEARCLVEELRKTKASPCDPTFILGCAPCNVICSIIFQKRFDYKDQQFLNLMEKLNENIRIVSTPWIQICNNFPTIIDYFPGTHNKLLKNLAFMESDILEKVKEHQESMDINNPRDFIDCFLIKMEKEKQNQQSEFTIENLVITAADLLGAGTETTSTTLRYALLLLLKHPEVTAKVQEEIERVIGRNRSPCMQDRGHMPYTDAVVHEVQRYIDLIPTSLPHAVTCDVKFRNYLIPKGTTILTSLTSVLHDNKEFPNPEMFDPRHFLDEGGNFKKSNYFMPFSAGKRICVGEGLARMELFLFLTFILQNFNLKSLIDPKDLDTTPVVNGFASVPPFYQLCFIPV
Assay: CYP inhibition, CYP2C19
Type: in vitro ADME
# inhibition at 10 µM listing for each entry below

# SMILES_DATA, inhibition at 10 µM
records = [
    ("COc1cc2ccccc2cc1C(=O)NC(=S)Nc1ccc(-c2nnco2)cc1", "< 50%"),
    ("COc1cc2ccccc2cc1C(=O)NC(=S)Nc1ccc(-c2ncc[nH]2)cc1", "< 50%"),
]

###

Biological target: CYP2D6 (Homo sapiens, UniProt P10635)
Sequence (P10635 whole entry): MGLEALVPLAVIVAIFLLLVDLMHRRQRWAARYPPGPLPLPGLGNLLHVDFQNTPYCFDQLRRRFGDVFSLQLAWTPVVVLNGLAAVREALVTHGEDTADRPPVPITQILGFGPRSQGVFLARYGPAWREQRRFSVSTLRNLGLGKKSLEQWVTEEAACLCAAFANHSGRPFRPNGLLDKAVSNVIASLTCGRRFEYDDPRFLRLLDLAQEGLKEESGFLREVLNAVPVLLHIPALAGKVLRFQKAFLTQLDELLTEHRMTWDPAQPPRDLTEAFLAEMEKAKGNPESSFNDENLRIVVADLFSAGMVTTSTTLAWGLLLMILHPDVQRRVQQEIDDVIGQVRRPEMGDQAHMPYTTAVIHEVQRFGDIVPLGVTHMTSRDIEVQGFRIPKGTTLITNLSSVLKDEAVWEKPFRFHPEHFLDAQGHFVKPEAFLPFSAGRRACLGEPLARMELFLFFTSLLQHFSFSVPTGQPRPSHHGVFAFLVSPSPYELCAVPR
Assay: CYP inhibition, CYP2D6
Type: in vitro ADME
# inhibition at 10 µM listing for each entry below
READOUT: inhibition at 10 µM

# SMILES_DATA, RESULT
rows = [
    ("COc1cc2ccccc2cc1C(=O)NC(=S)Nc1ccc(-c2ncc[nH]2)cc1", "< 50%"),
    ("COc1cc2ccccc2cc1C(=O)NC(=S)Nc1ccc(-c2nnco2)cc1", "< 50%"),
]
